Experimental system: Substance-P receptor (Meriones unguiculatus, UniProt Q5DUB1)
Sequence (Q5DUB1 whole entry): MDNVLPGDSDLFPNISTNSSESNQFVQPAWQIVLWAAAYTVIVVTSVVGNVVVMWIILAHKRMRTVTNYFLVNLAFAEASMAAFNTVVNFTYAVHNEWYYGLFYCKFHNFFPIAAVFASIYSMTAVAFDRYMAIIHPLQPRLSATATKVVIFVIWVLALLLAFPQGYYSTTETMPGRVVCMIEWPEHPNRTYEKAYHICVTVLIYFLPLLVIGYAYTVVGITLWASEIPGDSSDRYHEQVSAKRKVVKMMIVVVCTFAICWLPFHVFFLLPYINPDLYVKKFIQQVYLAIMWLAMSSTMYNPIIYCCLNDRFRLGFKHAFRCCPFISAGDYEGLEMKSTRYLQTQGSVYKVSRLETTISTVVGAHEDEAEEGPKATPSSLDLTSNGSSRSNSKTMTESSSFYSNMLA
Measurement label: pKi
Numbers only, as −log10 of the molar value.

Sure, the documented pKi for Cc1cc(F)ccc1[C@H]1C[C@@H](N2CCN3C(=O)CC[C@H]3C2)CCN1C(=O)N(C)[C@H](C)c1cc(C(F)(F)F)cc(C(F)(F)F)c1 [ORVEPITANT] is 10.50

----------
Experimental system: Platelet-activating factor receptor (Homo sapiens, UniProt P25105)
Sequence (P25105 whole entry): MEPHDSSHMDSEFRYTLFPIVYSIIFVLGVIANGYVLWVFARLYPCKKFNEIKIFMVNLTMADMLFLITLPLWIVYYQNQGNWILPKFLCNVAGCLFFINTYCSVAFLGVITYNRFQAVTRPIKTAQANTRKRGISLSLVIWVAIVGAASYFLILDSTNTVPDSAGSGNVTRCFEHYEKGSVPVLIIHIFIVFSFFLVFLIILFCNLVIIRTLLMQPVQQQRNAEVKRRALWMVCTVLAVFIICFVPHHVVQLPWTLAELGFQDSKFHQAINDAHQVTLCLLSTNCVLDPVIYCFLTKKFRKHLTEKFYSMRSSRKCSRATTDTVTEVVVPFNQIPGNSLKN
Measurement label: Ki (µM)
Numbers only, in µM.

// sample Cc1cc(F)ccc1[C@H]1C[C@@H](N2CCN3C(=O)CC[C@H]3C2)CCN1C(=O)N(C)[C@H](C)c1cc(C(F)(F)F)cc(C(F)(F)F)c1 [ORVEPITANT] , its Ki was 2.27

Recorded values, source ChEMBL document CHEMBL2440072.
